# Protocol summary: acute toxicity in the mouse (method of LITCHFIELD and WILCOXON)
# Assay conditions: in vivo, oral administration
I'd be grateful if you could share measured LD50 for these entries.

O=C(O)CCCC[C@@H]1CCSS1 [R-α-lipoic acid]
> 100 mg/kg

# ---- query compound ----
LD50 reading for O=C(O)CCCC[C@H]1CCSS1 [S-α-lipoic acid] : > 100 mg/kg

src = patent US6271254A
